Where these numbers come from: patent US4243678A

# Test system: liver damage by CCl4
# assayOverview: Antihepatotoxic effect: duration of hexobarbital sleep of the rat after liver damage by CCl4
# testSettings: Rattus norvegicus, po, read-out: ED50 antihepatotoxic effect (dose which shortens the hexobarbital narcosis by 50%)
assayReadout: ED50 (mg/kg)
Write the value in mg/kg as a bare number.

>  <compound>
O=C(O)CCCN(C(=O)c1ccc(Cl)cc1)C(Cc1ccccc1)c1ccccc1 (stereo not shown)

>  <assayReadout>
ED50

>  <unitOfMeasurement>
mg/kg

>  <valueMeasured>
10

$$$$
>  <compound>
O=C(O)CCCN(C(=O)c1ccc(Cl)cc1)C1CCCCCCC1

>  <assayReadout>
ED50

>  <unitOfMeasurement>
mg/kg

>  <valueMeasured>
8

$$$$
>  <compound>
C#CC(C)(C)N(CCCC(=O)O)C(=O)c1ccc(Cl)cc1

>  <assayReadout>
ED50

>  <unitOfMeasurement>
mg/kg

>  <valueMeasured>
100

$$$$

ED50 in this record for COc1ccc(CCN(CCCC(=O)O)C(=O)c2ccc(Cl)cc2)cc1OC : 100

ED50 in this record for CC(=O)N(CCCC(=O)O)C(c1ccccc1)c1ccccc1 [Serial No. 14, N-acetyl-4-benzhydrylaminobutyric acid] : 10

ED50 in this record for O=C(O)CCCN(C(=O)c1ccc(Cl)cc1)C(c1ccccc1)c1ccccc1 : 10
